ASSAY NAME: Inhibition of Plasmodium vivax GGPPS
MEASURE: IC50 (nM)
The response must be a number in nM with no trailing unit.

Solved cases (3 shown):
- MOLECULE: "O=P(O)(O)C(O)(Cc1cccnc1)P(=O)(O)O [RISEDRONIC ACID]"
  IC50 (nM): 1100
- MOLECULE: "CCCCCCCCCCOc1ccc[n+](CC(P(=O)([O-])O)P(=O)(O)O)c1 (centres undefined)"
  IC50 (nM): 560
- MOLECULE: "CCCCCCCCN(C)CC(P(=O)(O)O)P(=O)(O)O"
  IC50 (nM): 630

Prompt: // query IC50 value for entry `CCCCCCCCCCN(C)CC(P(=O)(O)O)P(=O)(O)O`
Response: 700

----------
ASSAY NAME: Partition coefficient, log P of the compound
Type: physicochemical
CONDITION LABEL: octanol/water; read-out: logP
MEASURE: logP
Just the number, please.

- COMPOUND: "CCCCCCCCCCOc1ccc[n+](CC(P(=O)([O-])O)P(=O)(O)O)c1 (configuration not stated)"
  logP: -1.2

Prompt: // query logP value for entry `CCCCCCCCCCN(C)CC(P(=O)(O)O)P(=O)(O)O`
Response: -3.4

----------
The reader will find reported IC50 values listed item by item below.
Test system: Plasmodium falciparum
ASSAY NAME: Antiplasmodial activity against chloroquine-sensitive Plasmodium falciparum 3D7 assessed as suppression of parasitemia by microscopic analysis
The response must be a number in µM with no trailing unit.

- MOLECULE: "O=P(O)(O)C(O)(Cc1cccnc1)P(=O)(O)O [RISEDRONIC ACID]"
  QUANTITATIVE RESULT: 1.2
- MOLECULE: "CCCCCCCCN(C)CC(P(=O)(O)O)P(=O)(O)O"
  QUANTITATIVE RESULT: 0.65
- MOLECULE: "CCCCCCCCCCN(C)CC(P(=O)(O)O)P(=O)(O)O"
  QUANTITATIVE RESULT: 0.45

Prompt: // query IC50 value for entry CCCCCCCCCCOc1ccc[n+](CC(P(=O)([O-])O)P(=O)(O)O)c1 (centres undefined)
Response: 0.67

----------
The reader will find reported Ki values listed item by item below.
ASSAY NAME: Inhibition of Plasmodium vivax FPPS
The response must be a number in nM with no trailing unit.

- COMPOUND: "CCCCCCCCCCN(C)CC(P(=O)(O)O)P(=O)(O)O"
  MEASUREMENT UNITS: "nM"
  Ki: 43

Prompt: // query Ki value for entry CCCCCCCCCCOc1ccc[n+](CC(P(=O)([O-])O)P(=O)(O)O)c1 (centres undefined)
Response: 43

Prompt: // query Ki value for entry `O=P(O)(O)C(O)(Cc1cccnc1)P(=O)(O)O`
Response: 48

Prompt: // query Ki value for entry `CCCCCCCCN(C)CC(P(=O)(O)O)P(=O)(O)O`
Response: 43

----------
ASSAY NAME: Inhibition of Plasmodium vivax GGPPS
The reader will find reported pKi values listed item by item below.
# pKi is unitless: minus log10 of the molar concentration; print number only

Solved cases (3 shown):
- COMPOUND: "CCCCCCCCN(C)CC(P(=O)(O)O)P(=O)(O)O"
  pKi: 7.82
- COMPOUND: "CCCCCCCCCCN(C)CC(P(=O)(O)O)P(=O)(O)O"
  pKi: 7.80
- COMPOUND: "CCCCCCCCCCOc1ccc[n+](CC(P(=O)([O-])O)P(=O)(O)O)c1 (centres undefined)"
  pKi: 7.89

Prompt: // query pKi value for entry `O=P(O)(O)C(O)(Cc1cccnc1)P(=O)(O)O`
Response: 7.62
